- Tested on: Sphaerotheca fuliginea
- Test name: Cucumber powdery mildew preventive test
- Type: in vivo
- Condition label: in vivo
Readout kind: Preventive value
No unit in the answer, please; the number alone is enough.

Please review the following examples before continuing.
{"Compound": "COP(=S)(OC)Oc1c(Cl)cc(C)cc1Cl [Tolclofos-methyl]", "Preventive value": 33}
{"Compound": "CC1(C)N=C(c2cnc3ccccc3c2)c2cccc(F)c2C1(C)C [Compound A]", "Preventive value": 40}
{"Compound": "CN1OC(c2ccc(Cl)cc2)CC1(C)c1cccnc1 (centres unmarked) [Pyrisoxazole (b-103), Pyrisoxazole]", "Preventive value": 33}
{"Compound": "CN(C)C(=S)SSC(=S)N(C)C [Thiuram (b-68), Thiuram]", "Preventive value": 33}
{"Compound": "CON(C(=O)c1cn(C)nc1C(F)F)C(C)Cc1c(Cl)cc(Cl)cc1Cl (centres unmarked) [Compound of formula (III) (b-8)]", "Preventive value": 60}

[Q] Reported Preventive value, compound CC(C1CC1)C(O)(Cn1cncn1)c1ccc(Cl)cc1 (centres unmarked) [Cyproconazole (b-28), Cyproconazole] : ____
[A] 47

[Q] Try the compound COc1cc(C)c(C(=O)c2c(OC)ncc(Cl)c2C)c(OC)c1OC [Pyriofenone (b-83), Pyriofenone]
[A] 40

[Q] Repeat with CCN(C)/C=N/c1cc(C)c(Oc2nc(Cc3ccc(Cl)cc3)ns2)cc1C [Compound of formula (XVII) (b-91)]
[A] 40

###

The molecules listed here are annotated with their Preventive value.
- System: Botrytis cinerea
- Condition label: in vivo
When you answer, write just the number.

Some solved entries appear below for comparison.
{"Molecule": "CCCCNC(=O)n1c(NC(=O)OC)nc2ccccc21 [Benomyl (b-58), Benomyl]", "Preventive value": 60}
{"Molecule": "CCCN(CCOc1c(Cl)cc(Cl)cc1Cl)C(=O)n1ccnc1 [Prochloraz (b-21), Prochloraz]", "Preventive value": 17}
{"Molecule": "Cc1nn(C)c(Nc2c(F)cc(Cl)cc2F)c1-c1ccc(F)cc1Cl [Compound of formula (XV)-1 (b-89)]", "Preventive value": 40}
{"Molecule": "CC(C)C1C2CCC1c1c(NC(=O)c3cn(C)nc3C(F)F)cccc12 (centres unmarked) [Isopyrazam (b-7), Isopyrazam]", "Preventive value": 40}
{"Molecule": "CNC(=O)/C(=N/OC)c1ccccc1COc1cc(C)ccc1C [Dimoxystrobin (b-52), Dimoxystrobin]", "Preventive value": 17}

[Q] Fill in the blank: the reported Preventive value of CC(C)(C)C(O)C(Oc1ccc(Cl)cc1)n1cncn1 (centres unmarked) [Triadimenol (b-33), Triadimenol] is ____.
[A] 17

[Q] Likewise for Cn1cc(C(=O)Nc2ccc(F)cc2-c2ccc(Cl)c(Cl)c2)c(C(F)F)n1 [Bixafen (b-4), Bixafen] ?
[A] 33

[Q] Note, next up: OC(c1cccnc1)c1c(-c2ccc(Cl)cc2F)noc1-c1ccc(F)cc1F (centres unmarked) [Compound of (XVIII) (b-92)]
[A] 50

[Q] What do we get for COc1cc(C)c(C(=O)c2c(OC)ccc(Br)c2C)c(OC)c1OC [Metrafenone (b-82), Metrafenone] ?
[A] 0

[Q] Please give the result for O=C(NCCc1ncc(C(F)(F)F)cc1Cl)c1ccccc1C(F)(F)F [Fluopyram (b-43), Fluopyram] too.
[A] 40

[Q] Try CNC(=O)/C(=N/OC)c1ccccc1CO/N=C(C)/C(=N/OC)C(/C)=N/OC [Orysastrobin (b-53), Orysastrobin] next.
[A] 47
